- tested.on: GK (glucokinase, residues 12-465) (Homo sapiens)
- Construct: I.D. No. 1 corresponds to residues 12-465 of glucokinase
- test.protocol: enzymatic glucokinase activity assay (ATP consumption, KinaseGlo luminescence)
- assay.setup: Kact = concentration that displays 50% of the maximal increase in GK activity; 5 μM ATP, 5 mM Glucose, 60 min, room temperature; reported as bins; read-out: pKact
pEC50: −log10 of the molar value.
quantity.kind: pEC50

Study these solved cases before continuing.
Consider the molecule N#Cc1cc(S(=O)(=O)C2CC2)c2cnn(C(CC3CCOCC3)C(=O)Nc3ncc(F)s3)c2c1 (stereo not shown) and give its measured pEC50.
≥ 6.50

Consider the molecule O=C(Nc1ncc(Cl)s1)C(CC1CCOCC1)n1ncc2cc(S(=O)(=O)C3CC3)ccc21 (racemic) and give its measured pEC50.
5.50 to 5.80

Consider the molecule COc1ccc2c(cnn2[C@@H](CC2CCOCC2)C(=O)Nc2ccn(C)n2)c1S(=O)(=O)C1CC1 and give its measured pEC50.
≥ 6.50

Consider the molecule O=C(Nc1ncc(F)s1)[C@H](CC1CCOCC1)n1cc(S(=O)(=O)C2CCCC2)cn1 and give its measured pEC50.
5.90 to 6.40

Consider the molecule O=C1CC[C@H](C[C@@H](C(=O)Nc2cnccn2)n2ncc3c(S(=O)(=O)C4CC4)cccc32)C1 and give its measured pEC50.
5.50 to 5.80

Others:
Consider the molecule O=C(Nc1cnccn1)[C@H](CC1CCOCC1)n1ncc2c(S(=O)(=O)C3CC3)cccc21 and give its measured pEC50.
5.50 to 5.80

Consider the molecule O=C1CC[C@H](C[C@H](C(=O)Nc2ncc(Cl)s2)n2ncc3c(S(=O)(=O)C4CC4)cccc32)C1 and give its measured pEC50.
≥ 6.50

====

- tested.on: GK (glucokinase, residues 12-465) (Homo sapiens, UniProt P35557)
- Construct: I.D. No. 1 corresponds to residues 12-465 of glucokinase; made in house; host or cells: DH10b-T1r E. coli
- Sequence (P35557 with tags, fused parts or gaps isoform P35557-2): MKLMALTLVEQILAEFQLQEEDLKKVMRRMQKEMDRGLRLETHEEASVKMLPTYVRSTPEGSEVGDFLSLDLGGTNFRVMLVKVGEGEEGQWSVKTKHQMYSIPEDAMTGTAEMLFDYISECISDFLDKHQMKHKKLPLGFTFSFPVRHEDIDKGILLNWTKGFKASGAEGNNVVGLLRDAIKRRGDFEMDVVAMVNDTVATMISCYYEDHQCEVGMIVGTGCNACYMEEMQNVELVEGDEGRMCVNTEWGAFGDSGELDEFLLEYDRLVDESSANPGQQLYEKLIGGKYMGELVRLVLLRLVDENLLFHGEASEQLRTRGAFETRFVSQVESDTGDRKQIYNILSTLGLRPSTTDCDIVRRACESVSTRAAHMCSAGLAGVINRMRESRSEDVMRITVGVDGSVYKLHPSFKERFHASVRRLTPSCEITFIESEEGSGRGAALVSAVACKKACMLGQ
- test.protocol: enzymatic glucokinase activity assay (ATP consumption, KinaseGlo luminescence)
- Assay type: biochemical
- assay.setup: read-out: % ACTmax, calculated maximal gain in GK enzyme activity at a saturating concentration of the compound; 5 μM ATP, 5 mM Glucose; reported as bins
Catalogue of Emax readings, one per entry.

Study these solved cases before continuing.
Consider the compound O=C(Nc1ncc(F)s1)C(CC1CCOCC1)n1ncc2c(S(=O)(=O)C3CC3)cncc21 (centres unmarked) [Compound 13] and give its measured Emax.
106 to 110%

Consider the compound O=C(Nc1ncc(Cl)s1)C(CC1CCOCC1)n1cc(S(=O)(=O)C2CCCC2)cn1 (centres unmarked) [Compound 5] and give its measured Emax.
≥ 111%

Consider the compound Cn1ccc(NC(=O)[C@@H](CC2CCOCC2)n2ncc3c(S(=O)(=O)C4CC4)cccc32)n1 [Compound 118] and give its measured Emax.
≤ 90%

Consider the compound COc1ccc2nc(NC(=O)C(CC3CCOCC3)n3ccc(S(=O)(=O)C4CC4)n3)sc2n1 (centres unmarked) [Compound 1] and give its measured Emax.
≤ 90%

Consider the compound O=C(Nc1ncc(F)s1)[C@H](CC1CCOCC1)n1ncc2c(S(=O)(=O)C3CC3)cncc21 [Compound 84] and give its measured Emax.
106 to 110%

Consider the compound O=C(Nc1cnccn1)[C@H](CC1CCOCC1)n1ncc2c(S(=O)(=O)C3CC3)cncc21 [Compound 171] and give its measured Emax.
106 to 110%

Consider the compound NC(=O)c1ccc(NC(=O)[C@H](CC2CCOCC2)n2ncc3c(S(=O)(=O)C4CC4)cccc32)nc1 [Compound 107] and give its measured Emax.
≥ 111%

Let us examine a further case.
Consider the compound O=C(NC1CC1)c1nn(C(CC2CCOCC2)C(=O)Nc2ncc(Cl)s2)cc1Cl (centres unmarked) [Compound 8] and give its measured Emax.
≤ 90%

====

- tested.on: GK (glucokinase, residues 12-465) (Homo sapiens)
- Construct: I.D. No. 1 corresponds to residues 12-465 of glucokinase
- Sequence (P35557 with tags, fused parts or gaps isoform P35557-2): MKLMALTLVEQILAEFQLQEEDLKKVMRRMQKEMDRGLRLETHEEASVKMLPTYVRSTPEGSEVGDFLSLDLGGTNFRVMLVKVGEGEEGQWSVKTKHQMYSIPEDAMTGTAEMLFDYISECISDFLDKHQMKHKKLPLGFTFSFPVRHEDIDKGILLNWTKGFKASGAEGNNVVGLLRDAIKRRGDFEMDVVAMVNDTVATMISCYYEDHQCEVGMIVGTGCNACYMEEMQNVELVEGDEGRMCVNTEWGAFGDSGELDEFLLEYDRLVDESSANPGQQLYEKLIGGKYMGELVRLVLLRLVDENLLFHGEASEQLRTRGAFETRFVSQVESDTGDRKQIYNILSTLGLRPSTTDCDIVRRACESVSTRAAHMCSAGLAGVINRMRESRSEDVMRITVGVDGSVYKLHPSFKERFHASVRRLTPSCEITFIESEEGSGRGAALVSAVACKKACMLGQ
- test.protocol: enzymatic glucokinase activity assay (ATP consumption, KinaseGlo luminescence)
- assay.setup: Kact = concentration that displays 50% of the maximal increase in GK activity; 5 μM ATP, 5 mM Glucose, 60 min, room temperature; reported as bins; read-out: pKact
pEC50: −log10 of the molar value.
quantity.kind: pEC50

Study these solved cases before continuing.
Consider the molecule O=C(Nc1ccncn1)C(CC1CCOCC1)n1ncc2c(S(=O)(=O)C3CC3)cccc21 (centres unmarked) and give its measured pEC50.
4.90 to 5.40

Consider the molecule O=C(Nc1ncc(F)s1)[C@H](CC1CCOCC1)n1cc(S(=O)(=O)C2CC2)cn1 and give its measured pEC50.
4.90 to 5.40

Let us examine a further case.
Consider the molecule O=C(Nc1cnccn1)C(CC1CCOCC1)n1ncc2c(S(=O)(=O)C3CC3)c(F)ccc21 (centres unmarked) and give its measured pEC50.
≥ 6.50

====

- tested.on: GK (glucokinase, residues 12-465) (Homo sapiens, UniProt P35557)
- Construct: I.D. No. 1 corresponds to residues 12-465 of glucokinase; made in house; host or cells: DH10b-T1r E. coli
- test.protocol: enzymatic glucokinase activity assay (ATP consumption, KinaseGlo luminescence)
- Type: biochemical
- assay.setup: calculated maximal gain in GK enzyme activity at a saturating concentration of the compound; 5 μM ATP, 5 mM Glucose; reported as bins; read-out: % ACTmax
quantity.kind: Emax

Consider the compound Cn1ccc(NC(=O)C(CC2CCOCC2)n2cc3c(S(=O)(=O)C4CC4)c(F)ccc3n2)n1 (stereo not drawn) [Compound 153] and give its measured Emax.
106 to 110%

Consider the compound COc1ccc2c(cnn2[C@@H](CC2CCOCC2)C(=O)Nc2cnccn2)c1S(=O)(=O)C1CC1 [Compound 94] and give its measured Emax.
90 to 100%

Consider the compound Cn1ccc(NC(=O)[C@H](CC2CCOCC2)n2ncc3c(S(=O)(=O)C4CC4)c(F)ccc32)n1 [Compound 165] and give its measured Emax.
90 to 100%

Consider the compound O=C(Nc1ncc(Cl)s1)[C@@H](CC1CCOCC1)n1ncc2cc(S(=O)(=O)C3CC3)ccc21 [Compound 47] and give its measured Emax.
≥ 111%

Consider the compound O=C(Nc1ncc(F)s1)C(CC1CCOCC1)n1cc(S(=O)(=O)c2ccc(Cl)cc2)cn1 (stereo not drawn) [Compound 29] and give its measured Emax.
≥ 111%

Others:
Consider the compound O=C(Nc1cnccn1)C(CC1CCCC1)n1ncc2c(S(=O)(=O)C3CC3)cccc21 (stereo not drawn) [Compound 61] and give its measured Emax.
90 to 100%

Consider the compound O=C1CC[C@H](CC(C(=O)Nc2ncc(Cl)s2)n2ncc3c(S(=O)(=O)C4CC4)cccc32)C1 (stereo partly drawn) [Compound 11] and give its measured Emax.
101 to 105%

Consider the compound O=C(Nc1ncc(Cl)s1)C(CC1CCOCC1)n1cc2c(S(=O)(=O)C3CC3)cccc2n1 (stereo not drawn) [Compound 70] and give its measured Emax.
101 to 105%

Consider the compound Cc1ccc(NC(=O)C(CC2CCOCC2)n2ncc3c(S(=O)(=O)C4CC4)cccc32)nn1 (stereo not drawn) [Compound 116] and give its measured Emax.
≤ 90%

Consider the compound O=C(Nc1ncc(Cl)s1)[C@H](CC1CCCC1)n1cc(S(=O)(=O)C2CC2)cn1 [Compound 39] and give its measured Emax.
≥ 111%

Consider the compound O=C(Nc1ccncn1)C(CC1CCOCC1)n1ncc2c(S(=O)(=O)C3CC3)cccc21 (stereo not drawn) [Compound 124] and give its measured Emax.
≥ 111%

Consider the compound Cn1ccc(NC(=O)C(CC2CCOCC2)n2ncc3c(S(=O)(=O)C4CC4)ccnc32)n1 (stereo not drawn) [Compound 95] and give its measured Emax.
101 to 105%
